Items are presented alongside their recorded IC50.
Molecular target: PDE4D3 (Homo sapiens)
Construct: purchased BPS 60046
Sequence (Q08499 1-673 isoform Q08499-2): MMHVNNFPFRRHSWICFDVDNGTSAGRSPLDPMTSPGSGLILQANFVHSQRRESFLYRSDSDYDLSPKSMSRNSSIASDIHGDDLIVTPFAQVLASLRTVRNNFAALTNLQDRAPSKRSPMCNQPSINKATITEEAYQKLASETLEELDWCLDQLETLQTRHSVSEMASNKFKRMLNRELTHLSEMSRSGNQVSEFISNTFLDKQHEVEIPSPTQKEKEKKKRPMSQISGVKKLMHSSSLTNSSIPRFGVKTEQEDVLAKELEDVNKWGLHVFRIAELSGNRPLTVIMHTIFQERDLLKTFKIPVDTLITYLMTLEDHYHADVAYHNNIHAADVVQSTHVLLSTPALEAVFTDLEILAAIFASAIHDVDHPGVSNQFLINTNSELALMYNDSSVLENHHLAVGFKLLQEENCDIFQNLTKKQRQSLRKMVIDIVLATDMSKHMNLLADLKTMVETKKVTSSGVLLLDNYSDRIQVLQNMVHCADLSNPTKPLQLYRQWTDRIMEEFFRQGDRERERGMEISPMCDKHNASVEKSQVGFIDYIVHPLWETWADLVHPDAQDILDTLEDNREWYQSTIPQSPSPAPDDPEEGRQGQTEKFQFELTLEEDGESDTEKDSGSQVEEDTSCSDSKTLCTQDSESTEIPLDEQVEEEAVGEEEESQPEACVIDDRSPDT
Experiment: PDE4 activity inhibition assay, PDE4D3
Type: biochemical
Settings: FAM-cAMP substrate, 30 minutes at room temperature
observedProperty: IC50 (nM)

[2H]C([2H])([2H])Oc1ccc([C@@H](CS(C)(=O)=O)N2C(=O)c3cc(F)cc(NC(C)=O)c3C2=O)cc1OC([2H])([2H])[2H] | 79
CCOc1nc(C(CS(C)(=O)=O)N2C(=O)c3cccc(NC(=O)CC(C)C)c3C2=O)ccc1OC (centres unmarked) | 1.3
CCOc1nc([C@H](CS(C)(=O)=O)N2C(=O)c3c(F)ccc(NC(C)=O)c3C2=O)ccc1OC | 4
CCOc1nc([C@@H](CS(C)(=O)=O)N2C(=O)c3cc(C#N)cc(NC(C)=O)c3C2=O)ccc1OC | 13
[2H]C([2H])([2H])Oc1ccc([C@@H](CS(C)(=O)=O)N2C(=O)c3c(Cl)ccc(NC(C)=O)c3C2=O)cc1OCC | 1.3
CCOc1cc(C(CS(C)(=O)=O)N2C(=O)c3ccc(F)c(NC(C)=O)c3C2=O)ccc1OC (centres unmarked) | 65
CCOc1nc(C(CS(C)(=O)=O)N2C(=O)c3cccc(NC(=O)CN(C)C)c3C2=O)ccc1OC (centres unmarked) | 8
[2H]C([2H])([2H])Oc1ccc([C@@H](CS(C)(=O)=O)N2C(=O)c3c(F)ccc(NC(=O)C4CC4)c3C2=O)nc1OCC | 1
CCOc1nc(C(CS(C)(=O)=O)N2C(=O)c3c(F)ccc(NC(=O)CC(C)C)c3C2=O)ccc1OC (centres unmarked) | 1.8
CCOc1nc([C@@H](CS(C)(=O)=O)N2C(=O)c3cc(F)cc(NC(C)=O)c3C2=O)ccc1OC | 1.6
CCOc1nc(C(CS(C)(=O)=O)N2C(=O)c3cccc(NC(=O)CO)c3C2=O)ccc1OC (centres unmarked) | 10.9
[2H]C([2H])([2H])Oc1ccc([C@@H](CS(C)(=O)=O)N2C(=O)c3cccc(NC(=O)C4CC4)c3C2=O)cc1OCC | 4.9
CCOc1cc(C(CS(C)(=O)=O)N2C(=O)c3cccc(NC(C)=O)c3C2=O)cnc1OC (centres unmarked) | 202
CCOc1cc([C@@H](CS(C)(=O)=O)N2C(=O)c3c(Cl)ccc(NC(C)=O)c3C2=O)ccc1OC | 1.9

###

Test: PK parameter test in SD rats
Assay type: in vivo, Sprague-Dawley rats
Settings: Sprague-Dawley, rat; male SD rats, intravenous injection 3 mg/kg, plasma; read-out: T1/2 (IV) (converted)
observedProperty: half-life (min)

[2H]C([2H])([2H])Oc1ccc([C@@H](CS(C)(=O)=O)N2C(=O)c3c(F)ccc(NC(C)=O)c3C2=O)cc1OCC | 63
CCOc1nc([C@@H](CS(C)(=O)=O)N2C(=O)c3cccc(NC(C)=O)c3C2=O)ccc1OC | 22.8
CCOc1nc([C@@H](CS(C)(=O)=O)N2C(=O)c3cc(F)cc(NC(C)=O)c3C2=O)ccc1OC | 32.4
[2H]C([2H])([2H])Oc1ccc([C@@H](CS(C)(=O)=O)N2C(=O)c3cc(F)cc(NC(C)=O)c3C2=O)cc1OCC | 57
CCOc1nc([C@@H](CS(C)(=O)=O)N2C(=O)c3c(F)ccc(NC(C)=O)c3C2=O)ccc1OC | 55.2
CCOc1cc([C@@H](CS(C)(=O)=O)N2C(=O)c3cccc(NC(C)=O)c3C2=O)ccc1OC [Reference compound 2, reference compound] | 28.2

Origin of measurements: patent US11337964B2
